Values compiled from the supplement of paper PMC6555819.

Tested on: RARa:RXR (NR concentration 270 nM, RXRa partner concentration 90 nM)
assay info: PBM binding z-score (relative to random genomic background probes); higher = stronger binding; sequences stand for … in GC…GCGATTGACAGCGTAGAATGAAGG
Reported PBM binding z-score values for the following sequences.
value kind: PBM binding z-score

TAGCCTACGTCATTGGGCCAGTATAGTACGCATC = -0.734
CCTACTGGGCCTTCAGGTCATTGATATCAACGTT = 1.5
CTCGAAAGGTCGGTTGAGGTGTGTATACGGATAA = 1.53
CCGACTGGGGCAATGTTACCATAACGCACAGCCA = -0.456
ACAGACAGGTGAAGAAGGTAACTCAGGCTATCAT = 0.274
CCTGCTAGGTCAATGGTCACCTAAAGCAGCTCGC = 2.13
GCGACTGGGGCGTCAGCAGGTTACCATAACTTAA = 0.206
CCTTACGGGTCACTGAGAGGTTATAGCATTTGGA = 5.88
TCTTGTAGATCAATAGATGTTAAGAAAGTGCGCT = 0.616
TCTTGCAGATCAATAGAGGTTAAGAAAGTGCGCT = 1.91
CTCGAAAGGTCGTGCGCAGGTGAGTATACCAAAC = 4.48
GGAACGAGGGCATTCGAGTTGATAGGATGGCGAT = 0.433

----------
Test system: PPARg homodimer (NR concentration 180 nM)
assay info: PBM binding z-score (relative to random genomic background probes); higher = stronger binding; sequences stand for … in GC…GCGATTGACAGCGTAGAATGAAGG
Reported PBM binding z-score values for the following sequences.
value kind: PBM binding z-score

ACAGACCGGTGATGAAGGTAACTCAGGCTATCAT = -0.0191
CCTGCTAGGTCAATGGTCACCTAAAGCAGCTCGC = 1.21
GCGACTGGGGCAAGGCAGGTTACCATAAGGTTGG = 0.688
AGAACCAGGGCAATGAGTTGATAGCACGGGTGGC = -0.0189
GATACAGGGTCAAGCCCAGAGTACGCGTATTGAT = 2.23
CGTGCAAGGTCAAGGTCAGTGAAAGAGACTCGAA = 4.25
TATACAGGGTCAAAGACCAGAGTACGAATGTCGA = 1.9
GTACCAAGGTGAATGGGTCGTTGATGAGTAGGCG = 1.22
CCTAGCAGGCCAATCTGGGTCTCTCAAGGCTTGA = -1.06
AGTATTAGTTGACTTAGGGCAACCGATACGACGC = 0.56
CCTACTGGGCCGAAGGTCATTGATTCCAATGCTC = 1.81
AGAATGAGATTATTAAGATCAGGGAATTGCGGTC = -0.475
CCGACTGGGGCATAAGGTTATCATAAGCCAGCCC = 1.33
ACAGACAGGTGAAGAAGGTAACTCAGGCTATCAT = 0.495
ACAGACAAGTGATGAAGGTAACTCAGGCTATCAT = -0.0362
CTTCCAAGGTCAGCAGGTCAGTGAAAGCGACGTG = 3.61
TTACCAATGTGAAGGTCGTTGATCCCTCTGTAGA = 0.84
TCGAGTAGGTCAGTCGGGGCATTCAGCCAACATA = 1.14
TCCTGTAGATCAATAGAGGTTAAGAAAGTGCGCT = 0.185
ACTATTAGTTGAGACGAGCGCAACCGATAGGTTG = -0.155
ACTATTAGTTGAGACGAGGGCAACGGATAGGTTG = 0.155
GGACCGAGGGCATTCGAGTTGATAGCATGGCGAT = -0.223
GCTTACGGGCCAAAGGTTATAGCATGAATAGAAT = 0.626
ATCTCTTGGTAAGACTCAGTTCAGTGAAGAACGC = 1.11
TCTAGTTGGTAAAAGGTCACACACTCGAAATGCG = 5.34
CATACAGGGTCAGCTAGGTCAGAGTAGGGACGGC = 3.26
